Hello, the source for this data is patent US20230272055A1, in case you need it.

- assay_system: T1, Recombinant MBP-mutCALR Type 1 fusion protein (human)
- T1 construct: custom made at Cepter; also called recombinant mutCALR protein
- test_description: SPR, IgG captured, 1:1 fit, Exp. 1
Listed binders paired with reported kon
Express it in M⁻¹ s⁻¹; write the number only.

{"binder": "anti-mutCALR antibody clone 8 (antibody, human IgG1, lambda, V domains shown, human IgG1) VH: QVQLVQSGAEVKKPGSSVKVSCKVSGYTLTELSMQWVRQAPGKGLEWMGGFDPDDGETMYAEKFQGRLTVTEDTSTDTVYMELRSLTSEDTALYFCATSPGYDFFDYWGQGTLVTVSS VL: SYELTQPPSVSVAPGQTARITCGGNNIGSKSVHWYQQKPGQAPVLVVYDDSDRPSGIPERFSGSNSGRTATLTISRVEAGDEADYHCQVWDSSSDHLVFGGGTKLTVLG", "kon / M⁻¹ s⁻¹": "1.75e+06"}
{"binder": "anti-mutCALR antibody clone 7 (antibody, human IgG1, lambda, V domains shown, human IgG1) VH: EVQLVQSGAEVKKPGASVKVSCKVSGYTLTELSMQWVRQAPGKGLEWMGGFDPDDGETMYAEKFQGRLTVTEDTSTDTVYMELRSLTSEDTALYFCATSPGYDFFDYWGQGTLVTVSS VL: SYVLTQPPSVSVAPGQTASITCVGTNFGSKNVHWYQQRPGQAPVLVVYDDSDRPSGIPERFSGSNSGNTATLTINRVEAGDEADYYCQVWDSSNDLLIFGGGTKLTVLG", "kon / M⁻¹ s⁻¹": "1.59e+06"}
{"binder": "anti-mutCALR antibody clone 47 (antibody, human IgG1, lambda, V domains shown, human IgG1) VH: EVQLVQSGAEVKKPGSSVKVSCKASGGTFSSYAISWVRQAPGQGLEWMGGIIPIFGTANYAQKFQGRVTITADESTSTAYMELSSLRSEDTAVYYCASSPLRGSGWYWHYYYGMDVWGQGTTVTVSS VL: SYELTQPPSVSVAPGKTARITCGGNKIGTKSVHWYQQKPGQAPVLVIYRDSNRPSGIPERFSGSNSGNTATLTISRAQAGDEADYYCQVWDSSTVVFGGGTKLTVLG", "kon / M⁻¹ s⁻¹": 213000}
{"binder": "anti-mutCALR antibody clone 2 (antibody, human IgG1, lambda, V domains shown, human IgG1) VH: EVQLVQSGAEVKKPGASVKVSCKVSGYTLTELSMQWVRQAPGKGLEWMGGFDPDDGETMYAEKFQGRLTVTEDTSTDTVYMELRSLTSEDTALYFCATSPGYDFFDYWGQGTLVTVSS VL: SYELTQPPSVSVAPGKTARITCGGDNIGSKSVHWYQQKPGQAPVLVVYDDSDRPSGIPERFSGSNSGNTATLTISRVEAGDEADYYCQVWDSSIDHLIFGGGTKVTVLG", "kon / M⁻¹ s⁻¹": "1.63e+06"}

Input: Can you share its kon? I mean this binder: anti-mutCALR antibody clone 38 (antibody, human IgG1, kappa, V domains shown, human IgG1) VH: EVQPVQSGAEVKKPGSSVKVSCKASGGTFSSYAISWVRQAPGQGLEWMGLVDPEDGETIYAEKFRGRVTITADTSTDTAYMELSSLRSEDTAVYYCATEESYGPWGQGTLVTVSS VL: DIQLTQSPSSLSASVGDRVTITCQASQDISNYLNWYQQKPGKAPKLLIYDASNLETGVPSRFSGSGSGTEFTLTISSLQPEDFATYYCQQLNSYPLTFGGGTKLEIKR
Output: 1.28e+06
